Tested on: ATP;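 note: ATP exposure 15 min at 22 °C before imaging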
Experiment: switch fluorescence ratio, 500 uM ATP over buffer (Cy3 cluster intensity, sum of 5 cycles each) (fold (ratio)); higher = stronger signal-on switching upon ATP binding; sequences stand for … in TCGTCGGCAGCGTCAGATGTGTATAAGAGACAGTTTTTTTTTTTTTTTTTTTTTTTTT…TC
Conditions: aptamer strand: ATP DNA aptamer (quencher-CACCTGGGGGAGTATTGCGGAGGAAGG + anchor), 100 nM annealed; ATP concentration: 500 uM
metric name: switch fluorescence ratio
Reply: number alone, nothing else.

Lookup: Would you mind telling me what switch fluorescence ratio value was observed for AATTTTATCG ?
Found: 0.974

Lookup: Would you mind telling me what switch fluorescence ratio value was observed for ATCTGCTTGA ?
Found: 0.974

Lookup: Would you mind telling me what switch fluorescence ratio value was observed for TTTATAGTTT ?
Found: 1.01

Lookup: Would you mind telling me what switch fluorescence ratio value was observed for GCTTGGGGGT ?
Found: 0.987

Lookup: Would you mind telling me what switch fluorescence ratio value was observed for TGCTGTTTTT ?
Found: 0.981

Lookup: Would you mind telling me what switch fluorescence ratio value was observed for CGCGCTTTTG ?
Found: 1.01

Lookup: Would you mind telling me what switch fluorescence ratio value was observed for AAGACAGGAA ?
Found: 1.03

Lookup: Would you mind telling me what switch fluorescence ratio value was observed for ATTGTATTTA ?
Found: 0.984

Lookup: Would you mind telling me what switch fluorescence ratio value was observed for ATCCCAGGGT ?
Found: 1.89

Lookup: Would you mind telling me what switch fluorescence ratio value was observed for TTTCAGGACT ?
Found: 0.996

Lookup: Would you mind telling me what switch fluorescence ratio value was observed for GGAGTGGTTC ?
Found: 0.999

Lookup: Would you mind telling me what switch fluorescence ratio value was observed for GGGGTGAGTG ?
Found: 1.02

Lookup: Would you mind telling me what switch fluorescence ratio value was observed for CGGGGGCCCT ?
Found: 1.01

Lookup: Would you mind telling me what switch fluorescence ratio value was observed for TTATCTTGGT ?
Found: 1

Lookup: Would you mind telling me what switch fluorescence ratio value was observed for ACTCTTTGAT ?
Found: 1.02

Lookup: Would you mind telling me what switch fluorescence ratio value was observed for GAGGGTGCAG ?
Found: 1

Lookup: Would you mind telling me what switch fluorescence ratio value was observed for TTATTCCTAT ?
Found: 1.02

Lookup: Would you mind telling me what switch fluorescence ratio value was observed for AAATTAAGGA ?
Found: 1.01

Lookup: Would you mind telling me what switch fluorescence ratio value was observed for CGGTGGACTA ?
Found: 1.01

Lookup: Would you mind telling me what switch fluorescence ratio value was observed for TTGAGGTGGG ?
Found: 1.23

Lookup: Would you mind telling me what switch fluorescence ratio value was observed for ATTAAGGTAG ?
Found: 1

Lookup: Would you mind telling me what switch fluorescence ratio value was observed for TCGGATTGGA ?
Found: 0.981

Lookup: Would you mind telling me what switch fluorescence ratio value was observed for TAACTGTTTT ?
Found: 1.06

Lookup: Would you mind telling me what switch fluorescence ratio value was observed for GGGTTTAAGT ?
Found: 0.986

Lookup: Would you mind telling me what switch fluorescence ratio value was observed for AATGAGTACG ?
Found: 1.02

Lookup: Would you mind telling me what switch fluorescence ratio value was observed for CGTTGTTAGT ?
Found: 1.04

Lookup: Would you mind telling me what switch fluorescence ratio value was observed for CGCTGGGGTT ?
Found: 0.996

Lookup: Would you mind telling me what switch fluorescence ratio value was observed for CTGTGTTCTT ?
Found: 0.986

Lookup: Would you mind telling me what switch fluorescence ratio value was observed for CTTGGATGTC ?
Found: 0.985

Lookup: Would you mind telling me what switch fluorescence ratio value was observed for AATTTGTAGA ?
Found: 1

Lookup: Would you mind telling me what switch fluorescence ratio value was observed for AACCGGTGCA ?
Found: 1.08

Lookup: Would you mind telling me what switch fluorescence ratio value was observed for AAAAGTAACC ?
Found: 0.993

Lookup: Would you mind telling me what switch fluorescence ratio value was observed for TTAACGGTAA ?
Found: 1.09

Lookup: Would you mind telling me what switch fluorescence ratio value was observed for TAAATCCTA ?
Found: 1.02

Lookup: Would you mind telling me what switch fluorescence ratio value was observed for AGGCAACGAA ?
Found: 1.04

Lookup: Would you mind telling me what switch fluorescence ratio value was observed for CAGGTCAGGT ?
Found: 1.01

Lookup: Would you mind telling me what switch fluorescence ratio value was observed for TTAGCATGGG ?
Found: 1.04

Lookup: Would you mind telling me what switch fluorescence ratio value was observed for TTTGCACTGT ?
Found: 0.998

Lookup: Would you mind telling me what switch fluorescence ratio value was observed for TATTGGCGTC ?
Found: 0.985

Lookup: Would you mind telling me what switch fluorescence ratio value was observed for CTCGGAATTT ?
Found: 1.04

Lookup: Would you mind telling me what switch fluorescence ratio value was observed for TTTTTTTTG ?
Found: 0.987

Lookup: Would you mind telling me what switch fluorescence ratio value was observed for AGGAGGGGGC ?
Found: 1

Lookup: Would you mind telling me what switch fluorescence ratio value was observed for CCTCAGACAG ?
Found: 1.58

Lookup: Would you mind telling me what switch fluorescence ratio value was observed for GCTACCACTC ?
Found: 1.09

Lookup: Would you mind telling me what switch fluorescence ratio value was observed for AGTGTTTGG ?
Found: 0.997

Lookup: Would you mind telling me what switch fluorescence ratio value was observed for GAACTTTTTA ?
Found: 0.981

Lookup: Would you mind telling me what switch fluorescence ratio value was observed for TAATAAATCA ?
Found: 1

Lookup: Would you mind telling me what switch fluorescence ratio value was observed for CTATGTCAAC ?
Found: 1.06

Lookup: Would you mind telling me what switch fluorescence ratio value was observed for TTGAGGGATG ?
Found: 0.992

Lookup: Would you mind telling me what switch fluorescence ratio value was observed for TTTACTTAGG ?
Found: 1.04

Lookup: Would you mind telling me what switch fluorescence ratio value was observed for ATTCACGGCC ?
Found: 1.06

Lookup: Would you mind telling me what switch fluorescence ratio value was observed for TGGTTGTCCC ?
Found: 1.01

Lookup: Would you mind telling me what switch fluorescence ratio value was observed for TTTGTGTCCG ?
Found: 0.946

Lookup: Would you mind telling me what switch fluorescence ratio value was observed for GTGTAATTTT ?
Found: 0.993

Lookup: Would you mind telling me what switch fluorescence ratio value was observed for TTGGGGAAAG ?
Found: 0.986

Lookup: Would you mind telling me what switch fluorescence ratio value was observed for ATATATACTG ?
Found: 1.05

Lookup: Would you mind telling me what switch fluorescence ratio value was observed for TCGGCACCAA ?
Found: 1.05

Lookup: Would you mind telling me what switch fluorescence ratio value was observed for ATTTTAAATG ?
Found: 1.04

Lookup: Would you mind telling me what switch fluorescence ratio value was observed for TTCAGTGATT ?
Found: 1

Lookup: Would you mind telling me what switch fluorescence ratio value was observed for CAGGGGGATG ?
Found: 1.01

Lookup: Would you mind telling me what switch fluorescence ratio value was observed for ACAGCTGCTT ?
Found: 0.981

Lookup: Would you mind telling me what switch fluorescence ratio value was observed for AGGGTCAGGA ?
Found: 0.996

Lookup: Would you mind telling me what switch fluorescence ratio value was observed for GTATGCTAGC ?
Found: 1

Lookup: Would you mind telling me what switch fluorescence ratio value was observed for CGTGGGGTCA ?
Found: 0.982

Lookup: Would you mind telling me what switch fluorescence ratio value was observed for GACGAAAAAG ?
Found: 0.982

Lookup: Would you mind telling me what switch fluorescence ratio value was observed for TTTAGAGTCC ?
Found: 1.05

Lookup: Would you mind telling me what switch fluorescence ratio value was observed for TTTGCCTT ?
Found: 1.06

Lookup: Would you mind telling me what switch fluorescence ratio value was observed for CTTGTGAGGG ?
Found: 0.985

Lookup: Would you mind telling me what switch fluorescence ratio value was observed for GGCATAGAAT ?
Found: 1

Lookup: Would you mind telling me what switch fluorescence ratio value was observed for GAATTAAGTT ?
Found: 1.01

Lookup: Would you mind telling me what switch fluorescence ratio value was observed for ATTGATTTAT ?
Found: 0.987

Lookup: Would you mind telling me what switch fluorescence ratio value was observed for TCGAGTTCAG ?
Found: 0.99

Lookup: Would you mind telling me what switch fluorescence ratio value was observed for GGTTTTCCGG ?
Found: 1.01

Lookup: Would you mind telling me what switch fluorescence ratio value was observed for ATCATTGAGA ?
Found: 0.997

Lookup: Would you mind telling me what switch fluorescence ratio value was observed for TGACTCCAGG ?
Found: 1.23

Lookup: Would you mind telling me what switch fluorescence ratio value was observed for CATGATTTGG ?
Found: 0.982

Lookup: Would you mind telling me what switch fluorescence ratio value was observed for TGGTTTCCCA ?
Found: 0.974

Lookup: Would you mind telling me what switch fluorescence ratio value was observed for GTAGGGCATG ?
Found: 0.96

Lookup: Would you mind telling me what switch fluorescence ratio value was observed for GGGCGGTCGG ?
Found: 1

Lookup: Would you mind telling me what switch fluorescence ratio value was observed for GGTTCGCGGT ?
Found: 1.02

Lookup: Would you mind telling me what switch fluorescence ratio value was observed for TGGAACACCT ?
Found: 1.13

Lookup: Would you mind telling me what switch fluorescence ratio value was observed for TGGTTTGTAT ?
Found: 1

Lookup: Would you mind telling me what switch fluorescence ratio value was observed for ATGGGAGCCA ?
Found: 1

Lookup: Would you mind telling me what switch fluorescence ratio value was observed for GGGGTATTTG ?
Found: 0.99

Lookup: Would you mind telling me what switch fluorescence ratio value was observed for ATGTGTGTAT ?
Found: 1.12

Lookup: Would you mind telling me what switch fluorescence ratio value was observed for AAGCTAGGAG ?
Found: 0.999
